target: hNurr1_RXRαFL (NURR1/RXRα heterodimer) (Homo sapiens, UniProt P19793+P43354); assay: Transactivation assay in Cos-7 cells, NURR-1-Gal4 / RXRα, luciferase reporter; details: Cos-7 cells, overnight incubation
Sequence (P19793 whole entry, the tested form may be a part): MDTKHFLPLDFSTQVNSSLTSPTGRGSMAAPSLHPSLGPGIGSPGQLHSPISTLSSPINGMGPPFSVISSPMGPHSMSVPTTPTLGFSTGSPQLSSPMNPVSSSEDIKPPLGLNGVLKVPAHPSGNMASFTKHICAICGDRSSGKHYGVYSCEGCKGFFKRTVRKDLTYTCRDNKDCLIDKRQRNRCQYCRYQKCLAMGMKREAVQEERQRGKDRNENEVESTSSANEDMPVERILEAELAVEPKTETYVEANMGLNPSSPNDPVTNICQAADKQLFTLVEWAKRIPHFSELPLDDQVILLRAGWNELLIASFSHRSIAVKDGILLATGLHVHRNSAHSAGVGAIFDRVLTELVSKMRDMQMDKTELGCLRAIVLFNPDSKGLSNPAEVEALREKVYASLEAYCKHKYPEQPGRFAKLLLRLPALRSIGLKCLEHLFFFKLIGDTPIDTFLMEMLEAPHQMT
Sequence (P43354 328-598): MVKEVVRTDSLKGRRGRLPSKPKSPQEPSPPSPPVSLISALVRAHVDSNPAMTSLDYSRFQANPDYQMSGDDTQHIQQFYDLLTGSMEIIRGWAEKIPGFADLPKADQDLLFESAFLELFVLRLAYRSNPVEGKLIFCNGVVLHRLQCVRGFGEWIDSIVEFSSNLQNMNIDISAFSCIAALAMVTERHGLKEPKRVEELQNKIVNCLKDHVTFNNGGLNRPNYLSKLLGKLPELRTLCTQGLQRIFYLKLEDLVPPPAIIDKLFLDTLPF
parameter-measured: EC50 (nM)
Give the value in nM but do not write nM after it.

Check out these entries, answers already filled in.
structure-string	EC50 (nM)
O=C(O)c1ccc(Cc2cc3cc(C(F)(F)F)ccc3n2S(=O)(=O)c2ccc(F)c(Cl)c2)cc1	372
O=C(O)c1ccc(Cc2cc3cc(C(F)(F)F)ccc3n2S(=O)(=O)c2ccc(-c3ccccc3)s2)cc1	396

Could you now look at the following compound, please?
*Q* Item under review: Cc1ccc(S(=O)(=O)n2c(Cc3ccc(C(=O)O)cc3)cc3cc(Cl)ccc32)cc1 . Reported EC50?
*A* 510

====

Target: hNurr1_RXRγFL (NURR1/RXRγ heterodimer) (Homo sapiens, UniProt P43354+P48443)
Sequence (P43354 328-598): as above
Sequence (P48443 whole entry, the tested form may be a part): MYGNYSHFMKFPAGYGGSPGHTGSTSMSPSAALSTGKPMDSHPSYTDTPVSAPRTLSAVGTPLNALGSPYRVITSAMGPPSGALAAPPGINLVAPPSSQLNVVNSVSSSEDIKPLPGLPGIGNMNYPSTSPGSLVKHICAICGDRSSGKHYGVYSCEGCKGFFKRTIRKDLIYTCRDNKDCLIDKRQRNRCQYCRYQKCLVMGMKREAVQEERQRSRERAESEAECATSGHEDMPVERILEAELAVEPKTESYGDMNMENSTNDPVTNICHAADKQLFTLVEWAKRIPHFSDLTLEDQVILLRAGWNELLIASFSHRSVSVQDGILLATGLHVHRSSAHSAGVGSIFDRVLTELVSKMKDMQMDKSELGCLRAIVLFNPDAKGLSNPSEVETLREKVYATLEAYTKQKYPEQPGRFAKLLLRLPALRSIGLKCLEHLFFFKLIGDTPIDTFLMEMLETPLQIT
Assay: Transactivation assay in Cos-7 cells, NURR-1-Gal4 / RXRγ, luciferase reporter
Conditions: Cos-7 cells, overnight incubation
Protocol: First, the capacity of the compounds according to the invention for acting as an activator of the heterodimers formed by the NURR-1 nuclear receptor and the RXR nuclear receptors was measured by an in vitro assay. A transactivation assay was used as a primary screening assay. […] After 24 hours, the culture medium was changed. […] After overnight incubation, luciferase expression was measured after addition of “SteadyGlo” according to the manufacturer's instructions (Promega). […]
// values below are reported pEC50
# log scale: pEC50 equals minus log10 of the concentration in mol/L

*Q* Report pEC50 for O=C(O)c1ccc(Cc2cc3cc(C(F)(F)F)ccc3n2S(=O)(=O)c2cccc(C3CC3)c2)cc1 please.
*A* 6.53

*Q* Given the molecule O=C(O)c1ccc(Cc2cc3cc(Cl)ccc3n2S(=O)(=O)c2cccc(C(F)(F)F)c2)cc1 , what is its reported pEC50?
*A* 6.35

*Q* Reported pEC50 for O=C(O)c1ccc(Cc2cc3cc(C(F)(F)F)ccc3n2S(=O)(=O)c2cc3ccccc3o2)cc1 : what is it?
*A* 6.17

====

target: hNurr1_RXRαFL (NURR1/RXRα heterodimer) (Homo sapiens, UniProt P19793+P43354); test: Transactivation assay in Cos-7 cells, NURR-1-Gal4 / RXRα, luciferase reporter; format: cell-based; details: COS-7, read-out: hNurr1_RXRαFL Eff (%), efficacy in % relative to the reference XCT0135908 at 2·10^−5 M (=100%)
Record satisfied whenever Emax is at 80% or higher; record not satisfied when lower.

# example entries with known answers
compound	group
CCc1ccc(S(=O)(=O)n2c(Cc3ccc(C(=O)O)cc3)cc3cc(Cl)ccc32)cc1 [Example 159]	not satisfied
O=C(O)c1cc(Cc2cc3cc(Cl)ccc3n2S(=O)(=O)c2ccc3c(c2)OCCO3)cs1 [Example 78]	satisfied
CC(C)(C)c1cccc(S(=O)(=O)n2c(Cc3csc(C(=O)O)c3)cc3cc(C(F)(F)F)ccc32)c1 [Example 70]	satisfied
CC(C)(C)c1cccc(S(=O)(=O)n2c(Cc3ccc(C4=NOC(=O)C4)cc3)cc3cc(C(F)(F)F)ccc32)c1 [Example 228]	satisfied
CC(C)(C)c1cccc(S(=O)(=O)n2c(Cc3ccc(-c4noc(=O)[nH]4)cc3)cc3cc(C(F)(F)F)ccc32)c1 [Example 222]	not satisfied
COc1cccc(S(=O)(=O)n2c(Cc3ccc(C(=O)O)cc3)cc3cc(C(F)(F)F)ccc32)c1 [Example 13]	not satisfied

Consider the record given below.
*Q* Is Emax at least 80%? Consider O=C(O)c1ccc(F)c(Cc2cc3cc(C(F)(F)F)ccc3n2S(=O)(=O)c2ccc3c(c2)OCCO3)c1 [Example 214]
*A* not satisfied

From: patent US20120232070A1
